meta.source: patent US20220117913A1

# ASSAYED SYSTEM: μ opioid receptor (Homo sapiens, UniProt P35372)
# Sequence (P35372 whole entry, species assumed): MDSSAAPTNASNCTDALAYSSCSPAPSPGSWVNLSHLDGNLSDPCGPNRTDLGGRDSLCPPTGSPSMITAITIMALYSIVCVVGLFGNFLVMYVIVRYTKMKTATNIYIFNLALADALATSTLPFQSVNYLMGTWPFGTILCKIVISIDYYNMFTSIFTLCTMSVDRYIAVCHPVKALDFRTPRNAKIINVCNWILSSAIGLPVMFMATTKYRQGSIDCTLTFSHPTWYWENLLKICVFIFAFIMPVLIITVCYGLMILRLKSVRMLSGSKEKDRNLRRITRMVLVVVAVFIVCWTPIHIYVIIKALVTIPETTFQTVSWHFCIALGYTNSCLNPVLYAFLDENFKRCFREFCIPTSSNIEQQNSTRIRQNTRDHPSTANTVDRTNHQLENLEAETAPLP
# PROTOCOL TEXT: radioisotope ligand competitive binding assay, μ opioid receptor (MOR)
# EXPERIMENTAL CONDITIONS: [3H]DAMGO 0.5 nM, cell membrane of stably transfected cells; read-out: μ IC50
pIC50: −log10 of the molar value. Counter-ions that a name gives are not always drawn.
READOUT TYPE: pIC50

Worked set:
CCOc1ccc2c(c1)[C@@]1(C)CCCCC[C@@H](C2)[C@@H]1NC [Hydrochloride of compound 37]: 5.00 to 6.00
CCN[C@H]1[C@H]2CCCCC[C@]1(C)c1cc(O)ccc1C2 [Hydrochloride of compound 19]: > 8.00

Record summary for CN(Cc1ccccc1)[C@H]1[C@H]2CCCCC[C@]1(C)c1cc(OCc3ccccc3)ccc1C2 [Hydrochloride of compound 40] : reported pIC50 = > 8.00

Lab book: pIC50 of C[C@@]12CCCCC[C@@H](Cc3ccc(O)cc31)[C@@H]2NCCc1ccc(Cl)c(Cl)c1 [Hydrochloride of compound 27] noted as 7.00 to 8.00

====

# ASSAYED SYSTEM: δ opioid receptor (Homo sapiens, UniProt P41143)
# Sequence (P41143 whole entry): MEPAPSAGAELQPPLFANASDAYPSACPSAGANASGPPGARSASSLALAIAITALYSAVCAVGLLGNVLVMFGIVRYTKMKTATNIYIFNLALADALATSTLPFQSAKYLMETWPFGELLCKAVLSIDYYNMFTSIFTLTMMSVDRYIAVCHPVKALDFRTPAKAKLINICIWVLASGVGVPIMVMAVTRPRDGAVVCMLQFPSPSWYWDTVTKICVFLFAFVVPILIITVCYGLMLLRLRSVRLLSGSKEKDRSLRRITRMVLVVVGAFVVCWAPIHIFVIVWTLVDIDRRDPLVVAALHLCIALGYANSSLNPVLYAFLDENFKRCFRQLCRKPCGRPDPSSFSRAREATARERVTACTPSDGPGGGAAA
# PROTOCOL TEXT: radioisotope ligand competitive binding assay, δ opioid receptor (DOR)
# EXPERIMENTAL CONDITIONS: [3H]-DADLE 0.5 nM, cell membrane of stably transfected cells; read-out: δ IC50
# Experimental: Through the radioisotope ligand competitive binding assay, IC50 of the compound was used as an indicator to evaluate the affinity of the compound to κ and δ opioid receptors. […] (9) The radioactive signal value CPM was read using MicroBeta2; (10) The data was analyzed with Prism 5. The percentage inhibition rate was calculated with the calculation formula: % Inh=(1-Background subtracted Assay value/Background subtracted HC value)*100.
Counter-ions that a name gives are not always drawn.
READOUT TYPE: IC50

Example entries and their recorded answers appear below.
CN[C@H]1[C@H]2CCCCC[C@]1(C)c1cc(OCc3ccccc3)ccc1C2 [Hydrochloride of compound 38]: 1000 to 10000 nM
CN[C@H]1[C@H]2CCCCC[C@]1(C)c1cc(OC)ccc1C2 [Hydrochloride of compound 1]: > 10000 nM
COc1ccc2c(c1)[C@@]1(C)CCCCC[C@@H](C2)[C@@H]1NCc1ccccc1 [Hydrochloride of compound 9]: 1000 to 10000 nM
COc1ccc2c(c1)[C@@]1(C)CCCCC[C@@H](C2)[C@@H]1N(C)Cc1ccccc1 [Hydrochloride of compound 17]: > 10000 nM
C[C@@]12CCCCC[C@@H](Cc3ccc(O)cc31)[C@@H]2NCCc1ccc(Cl)c(Cl)c1 [Hydrochloride of compound 27]: 100 to 1000 nM

Measured IC50, COc1ccc2c(c1)[C@@]1(C)CCCCC[C@@H](C2)[C@@H]1NCC1CC1 [Hydrochloride of compound 7] : > 10000 nM

The recorded IC50 for entry C[C@@]12CCCCC[C@@H](Cc3ccc(O)cc31)[C@@H]2NCCc1ccccc1 [Hydrochloride of compound 25] equals 100 to 1000 nM

Item: CCCCCN(C)[C@H]1[C@H]2CCCCC[C@]1(C)c1cc(OC)ccc1C2 [Hydrochloride of compound 16] | IC50: > 10000 nM

Noted for CCCCN[C@H]1[C@H]2CCCCC[C@]1(C)c1cc(OC)ccc1C2 [Hydrochloride of compound 4] : its IC50 reads 1000 to 10000 nM

Given item CN(C)[C@H]1[C@H]2CCCCC[C@]1(C)c1cc(O)ccc1C2 [Hydrochloride of compound 28] , the value recorded as its IC50 is 1000 to 10000 nM

====

Parameter: pIC50. Scope: all listed entries.
# ASSAYED SYSTEM: δ opioid receptor (Homo sapiens)
# PROTOCOL TEXT: radioisotope ligand competitive binding assay, δ opioid receptor (DOR)
# EXPERIMENTAL CONDITIONS: [3H]-DADLE 0.5 nM, cell membrane of stably transfected cells; read-out: δ IC50
pIC50: −log10 of the molar value. Counter-ions that a name gives are not always drawn.

Worked set:
COc1ccc2c(c1)[C@@]1(C)CCCCC[C@@H](C2)[C@@H]1N1CCCC1 [Hydrochloride of compound 12]: < 5.00
CCCN(C)[C@H]1[C@H]2CCCCC[C@]1(C)c1cc(O)ccc1C2 [Hydrochloride of compound 31]: 7.00 to 8.00
C[C@@]12CCCCC[C@@H](Cc3ccc(O)cc31)[C@@H]2N1CCCC1 [Hydrochloride of compound 29]: 5.00 to 6.00
CCN[C@H]1[C@H]2CCCCC[C@]1(C)c1cc(OC)ccc1C2 [Hydrochloride of compound 2]: < 5.00
CCCN[C@H]1[C@H]2CCCCC[C@]1(C)c1cc(OC)ccc1C2 [Hydrochloride of compound 3]: < 5.00

Measured pIC50, CCCCN(C)[C@H]1[C@H]2CCCCC[C@]1(C)c1cc(O)ccc1C2 [Hydrochloride of compound 32] : 7.00 to 8.00

The recorded pIC50 for entry CN(CCc1ccccc1)[C@H]1[C@H]2CCCCC[C@]1(C)c1cc(O)ccc1C2 [Hydrochloride of compound 30] equals 7.00 to 8.00

Note to self: pIC50 recorded for C[C@@]12CCCCC[C@@H](Cc3ccc(OCc4ccccc4)cc31)[C@@H]2N [Hydrochloride of compound 36] was 5.00 to 6.00

====

# ASSAYED SYSTEM: δ opioid receptor (Homo sapiens, UniProt P41143)
# PROTOCOL TEXT: radioisotope ligand competitive binding assay, δ opioid receptor (DOR)
# EXPERIMENTAL CONDITIONS: [3H]-DADLE 0.5 nM, cell membrane of stably transfected cells; read-out: δ IC50
pIC50: −log10 of the molar value. Counter-ions that a name gives are not always drawn.
# pIC50 per entry

Below: 2 compounds and their reported pIC50.
CN(Cc1ccccc1)[C@H]1[C@H]2CCCCC[C@]1(C)c1cc(OCc3ccccc3)ccc1C2 [Hydrochloride of compound 40]: 7.00 to 8.00
CCCCCN(C)[C@H]1[C@H]2CCCCC[C@]1(C)c1cc(O)ccc1C2 [Hydrochloride of compound 33]: 6.00 to 7.00

Short answer for CN[C@H]1[C@H]2CCCCC[C@]1(C)c1cc(O)ccc1C2 [Hydrochloride of compound 18] : pIC50 was 5.00 to 6.00
